tgt: UCHL5 (UniProt Q9Y5K5)
Sequence (Q9Y5K5 whole entry, the tested form may be a part): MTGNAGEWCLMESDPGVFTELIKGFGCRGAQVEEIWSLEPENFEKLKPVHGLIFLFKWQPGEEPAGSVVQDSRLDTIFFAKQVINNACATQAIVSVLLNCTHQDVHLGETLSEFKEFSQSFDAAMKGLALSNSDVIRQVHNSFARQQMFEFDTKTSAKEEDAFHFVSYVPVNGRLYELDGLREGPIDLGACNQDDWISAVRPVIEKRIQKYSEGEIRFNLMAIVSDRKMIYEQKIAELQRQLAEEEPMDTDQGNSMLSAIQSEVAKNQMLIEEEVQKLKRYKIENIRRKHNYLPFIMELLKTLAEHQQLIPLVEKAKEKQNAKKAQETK
protocol: log2 ratio of Biotin-Ahx-Ub-VS probe labelling (fragment/DMSO); higher = less target engagement (more negative = stronger competition), active = hit call of the paper (q ≤ 0.05, log2 ratio ≤ -1)
setupConditions: compound concentration: 200 uM; treatment time: 3 h
Entries and their measured log2 ratio of Biotin-Ahx-Ub-VS probe labelling follow.
assayReadout: log2 ratio of Biotin-Ahx-Ub-VS probe labelling

• C[C@H]1CN(C(=O)CCl)CCN1C(=O)c1cnn(C)c1.Cl = -0.259
• Cc1cccc2nc(CCNC(=O)CCl)cn12.Cl = -0.344
• Cl.O=C(CCl)NCc1ccnc(Oc2ccccc2F)c1 = -0.282
• Cc1nc(CC2CCN(C(=O)CCl)CC2)no1 = -0.792
• O=C(CCl)Nc1cc2c(cc1Cl)OCCO2 = -0.407
• CS(=O)(=O)c1ccc(CNC(=O)CCl)cc1 = -0.165
• CCC1c2ccsc2CCN1C(=O)CCl (centres undefined) = -0.25
• CC(O)CC1CCN(C(=O)CCl)CC1 (centres undefined) = -0.019
• Cc1cccc(NC(=O)CCl)c1C = -0.0693
• O=C(CCl)N1CCC(S(=O)(=O)c2ccc(F)cc2)CC1 = -0.128
• O=C(CCl)N1CCC(C(=O)N2CCCC2)CC1 = 0.037
• CS(=O)(=O)N1CCCN(C(=O)CCl)CC1 = -0.235
• O=C(CCl)N(C1=CCCCC1)C1CC1 = -0.186
• CC(NC(=O)CCl)c1ccc2[nH]ncc2c1 (centres undefined) = -0.328
• CC1CCc2onc(CNC(=O)CCl)c2C1 (centres undefined) = -0.175
• Cc1cc(Cl)ccc1NC(=O)CCl = -0.109
• Cc1ccc(N(C(=O)CCl)C2C=CS(=O)(=O)C2)cc1 (centres undefined) = -0.13
• CCc1c[nH]c(CNC(=O)CCl)n1.Cl = -0.335
• C[C@@H](NC(=O)CCl)c1cccc(C#N)c1 = -0.189
• Cc1ccc(C(=O)NCCNC(=O)CCl)cc1 = -0.144
• O=C(CCl)NCCc1cccc2ccccc12 = -0.029
• O=C(CCl)Nc1nc(-c2cccs2)cs1 = -2.61
• Cc1ccc(CC(CO)CNC(=O)CCl)cc1 (centres undefined) = -0.474
• O=C(CCl)Nc1cccc(NC(=O)c2ccccc2)c1 = 0.221
• Cc1cc(C2CCCN2C(=O)CCl)nn1C.Cl (centres undefined) = -0.218
• O=C(CCl)N1CCC(C(O)c2ccc(F)cc2)CC1 (centres undefined) = 0.12
• O=C(CCl)N1CCc2[nH]c3ccccc3c2C1 = -0.893
• Cc1cnc2[nH]cc(CCNC(=O)CCl)c2c1 = -0.065
• O=C(CCl)N1CCC(c2ccn[nH]2)C1 (centres undefined) = -0.213
• O=C(CCl)Nc1cc2c(cc1Cl)OCCCO2 = -0.0527
• O=C(CCl)N1CCC(C(=O)N2CCCCCC2)CC1 = -0.191
• N#Cc1ccc(CNC(=O)CCl)cc1 = -0.131
• COc1ccc(-c2csc(NC(=O)CCl)n2)cc1 = -3.29
• O=C(CCl)N1CCOC2(CCC2)CC1 = -0.0451
• Cc1cccnc1NC(=O)C1CCN(C(=O)CCl)CC1.Cl = -0.328
• Cc1cc(C(=O)NC2CCN(C(=O)CCl)CC2)no1 = -0.135
• C/C(=C\CNC(=O)CCl)c1cnn(C)c1.Cl = -0.0212
• O=C(CCl)Nc1ccc(Cl)c(F)c1 = -0.398
• Cn1cc(CN(Cc2ccc(Cl)cc2)C(=O)CCl)cn1 = -0.221
